Documented normalized growth across a set of compounds
test: chemical genetic growth profiling, strain panel (AID 1159580);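 also: tested at 20 µM; growth read once vehicle control cultures reached saturation at 30 °C; 1 = growth at the plate median or of vehicle wells; lower values mean less growth of the strain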
condition info: S. cerevisiae deletion strains, growth OD, locus YPL240C, strain hsp82, active compounds read low
The whole screen tested about 5,500 compounds, of which about 2,000 (36%) were called active. Inconclusive results (about 18%) are left out. The list shows a part of the results.
reported property: normalized growth

• CC(COc1ccccc1)N(CCCl)Cc1ccccc1 (centres undefined) = 0.991
• C[C@H](COc1ccccc1)N[C@H](C)[C@H](O)c1ccc(O)cc1 = 1.01
• COc1ccc(C=CC(=O)c2ccc(O)cc2O)cc1OC = 0.973
• CC(Cc1ccc(O)c(O)c1)(NN)C(=O)O (centres undefined) = 1
• C[C@](N)(Cc1ccc(O)cc1)C(=O)O = 1.01
• CCC(COC(=O)c1cc(OC)c(OC)c(OC)c1)(c1ccccc1)N(C)C (centres undefined) = 0.961
• CC(=O)O[C@H]1C[C@@H](OC(C)=O)C(C)(C)C2C[C@@H](OC(C)=O)[C@]3(C)C(CC[C@@]4(C)[C@H](c5ccoc5)C(=O)[C@H]5O[C@]543)[C@]21C (some centres undefined) = 0.998
• CC[C@]1(O)CC2CN(CCc3c([nH]c4ccccc34)[C@@](C(=O)OC)(c3cc4c(cc3OC)N(C=O)[C@H]3[C@@](O)(C(=O)OC)[C@H](OC(C)=O)[C@]5(CC)C=CCN6CC[C@]43[C@@H]65)C2)C1 (some centres undefined) = 0.952
• C[C@](N)(Cc1ccc(O)c(O)c1)C(=O)O = 0.979

* * *

Documented normalized growth across a set of compounds
test: chemical genetic growth profiling, strain panel (AID 1159580);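 also: tested at 20 µM; growth read once vehicle control cultures reached saturation at 30 °C; 1 = growth at the plate median or of vehicle wells; lower values mean less growth of the strain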
condition info: S. cerevisiae deletion strains, growth OD, locus YPL055C, strain LGE1, active compounds read low
Out of some 5,500 compounds screened, about 2,000 (36%) were called active. Inconclusive results (about 18%) are left out. The list shows a part of the results.
reported property: normalized growth

* O=C(Nc1cc(C(F)(F)F)cc(C(F)(F)F)c1)C(Sc1ccccn1)c1ccccc1 (stereo not given) | 1.03
* c1ccc2c(N3CCNCC3)cccc2c1 | 1.02
* CCNS(=O)(=O)c1cc(Cl)sc1Cl | 1.12
* COc1ccc(C[C@H](N)C(=O)N[C@@H]2[C@@H](CO)OC(n3cnc4c(N(C)C)ncnc43)[C@@H]2O)cc1 (stereo not given in full) | 1
* O=C(CC(Nc1ccccc1)c1ccccc1)C1CC1 (stereo not given) | 1.02
* COc1ccccc1N1CCN(Cc2ccc(F)cc2)CC1 | 1
* NC(=O)c1cc[n+](CC2=C(C(=O)O)N3C(=O)C(NC(=O)C(c4ccccc4)S(=O)(=O)[O-])C3SC2)cc1 (stereo not given) | 1.06
* CN(C(=O)Cc1ccc(Cl)c(Cl)c1)C(CN1CCCC1)c1cccc(OCC(=O)O)c1 (stereo not given) | 1.01
* O=c1ccn([C@@H]2O[C@H](COP(=O)(O)OP(=O)(O)OP(=O)(O)O)[C@@H](O)[C@H]2O)c(=O)[nH]1 | 1.04
* CC(C)c1nc2ccccc2[nH]1 | 1.04

* * *

test: chemical genetic growth profiling, strain panel (AID 1159580);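 also: tested at 20 µM; growth read once vehicle control cultures reached saturation at 30 °C; 1 = growth at the plate median or of vehicle wells; lower values mean less growth of the strain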
condition info: S. cerevisiae deletion strains, growth OD, locus YHR013C, strain ard1
Screen size: about 5,500 compounds; about 2,000 (36%) were called active. Inconclusive results (about 18%) are left out. Cut-off read from the data, not from the text of the source: active = normalized growth mostly below about 0.91 (no sharp cut-off); inconclusive = no clear call, values can overlap the other calls; inactive = mostly above about 0.92. Some of the results follow.
Classes used: label 1 for active, label 0 for inactive

• CC(Cc1ccc(O)c(O)c1)(NN)C(=O)O (stereo not given) = label 0
• CC[C@@]1(C2O[C@@H](C3O[C@@](O)(CC)[C@H](C)C[C@@H]3C)C[C@@H]2C)CC[C@H]([C@]2(C)CCC3(C[C@H](O)[C@@H](C)[C@@H]([C@H](C)[C@@H](OC)[C@H](C)C(=O)O)O3)O2)O1 (stereo not given in full) = label 0
• CC1(C)C2CC(=O)O[C@@]3(C)C4=CC(=O)O[C@@H](c5ccoc5)[C@]4(C)CCC3[C@@]2(C)C=C[C@H]1O (stereo not given in full) = label 0
• COc1cc2c(cc1O)CC1c3c(cc(O)c(OC)c3-2)CCN1C (stereo not given) = label 0
• CN(C)CCCO[C@H]1[C@@H](C(O)CO)OC2OC(C)(C)O[C@@H]21 (stereo not given in full) = label 0
• CC1=CC(=O)CC(C)(C)C1(O)/C=C/C(C)=C\C(=O)O (stereo not given) = label 0
• O=C1OCCN1/N=C\c1ccc([N+](=O)[O-])o1 = label 0
• O=C(O)CCCCC1SCC2NC(=O)NC21 (stereo not given) = label 0
• Cc1ccc(C(C)C)cc2c(C)ccc1-2 = label 0
• CN(Cc1cc(Br)cc(Br)c1N)C1CCCCC1 = label 0
• COc1ccc(CN(CCN(C)C)c2ncccn2)cc1 = label 0
• COc1ccccc1OCC(O)CN1CCN(CC(=O)Nc2c(C)cccc2C)CC1 (stereo not given) = label 0
• Nc1nc2c(c(=O)[nH]1)N(C=O)C(CNc1ccc(C(=O)N[C@@H](CCC(=O)O)C(=O)O)cc1)CN2 (stereo not given in full) = label 0
• O=C1N=C(O)CN1/N=C\c1ccc(-c2ccc([N+](=O)[O-])cc2)o1 = label 0
• CC1=C(/C=C/C(C)=C/C=C/C(C)=C/CO)C(C)(C)CCC1 = label 0
• C=CCc1cc(OC)c2c(c1OC)OCO2 = label 1
• O=C(O)c1cc(=O)c(O)c2c(O)c(O)c(O)cc2c1 = label 1
• O=C(O)c1cc(=O)c(O)c2c(O)c(O)ccc2c1 = label 0
• CC12CCC(CC1)C(C)(C)O2 = label 0
• CCOC(=O)c1ccc(N)cc1 = label 0
• CCOC(=O)CCCCCCCCCCCCC1C=CCC1 (stereo not given) = label 1
• O=C(O)c1cc(O)c(O)c(O)c1 = label 0
• CCn1cc(C(=O)O)c(=O)c2cnc(N3CCNCC3)nc21 = label 0
• CCOc1ccc2c(c1)C(C)=CC(C)(C)N2 = label 0
• CC1=C(/C=C/C(C)=C/C=C/C(C)=C/C(=O)O)C(C)(C)CCC1 = label 0
• Nc1nccs1 = label 0
• Nc1ccc(S(=O)(=O)Nc2nccs2)cc1 = label 0
• C[C@](N)(Cc1ccc(O)cc1)C(=O)O = label 0
• CC12CCC3C(CC=C4CC(O)CCC43C)C1CCC2=O (stereo not given) = label 0
• COc1cc(C)c2c(c1C=O)Oc1c(c(C)c(O)c3c1C(O)OC3=O)OC2=O (stereo not given) = label 0
• NC(=O)N/N=C\c1ccc([N+](=O)[O-])o1 = label 0
• O=C(O)CCC(=O)c1ccc(-c2ccccc2)cc1 = label 0
• Nc1nc2ncc(CNc3ccc(C(=O)N[C@@H](CCC(=O)O)C(=O)O)cc3)nc2c(=O)[nH]1 = label 0
• CC1=C(/C=C/C(C)=C/C=C/C(C)=C\C(=O)O)C(C)(C)CCC1 = label 0
• O=C(NC(=O)c1c(F)cccc1F)Nc1cc(Cl)c(OC(F)(F)C(F)C(F)(F)F)cc1Cl (stereo not given) = label 0
• Nc1nc(N)c2nc(CNc3ccc(C(=O)NC(CCC(=O)O)C(=O)O)cc3)cnc2n1 (stereo not given) = label 0
• CCOC(=O)C(C)(N)Cc1ccc(O)c(O)c1 (stereo not given) = label 0
• CC(=O)OCC(=O)[C@@]12OC(C)(C)O[C@@H]1CC1C3C[C@H](F)C4=CC(=O)C=C[C@]4(C)[C@@]3(F)[C@@H](O)C[C@@]12C (stereo not given in full) = label 0
• NC(=O)c1cnccn1 = label 0
• N[C@@H](CCC(=O)N[C@@H](CCSC(CC(=O)O)C(=O)O)C(=O)NCC(=O)O)C(=O)O (stereo not given in full) = label 0
• COP(=S)(OC)Oc1ccc(SC)c(C)c1 = label 0
• CCn1cc(C(=O)O)c(=O)c2cnc(N3CCCC3)nc21 = label 0
• NCCCCN=C(N)N = label 0
• CC(=O)O[C@H]1CC[C@@]2(C)C(=CCC3C2CC[C@@]2(C)C3CC[C@@H]2C(C)CCCC(C)C)C1 (stereo not given in full) = label 0
• O=C1O[C@@H](CO)[C@H](O)[C@@H](O)[C@@H]1O = label 0

The measurements presented in this section are drawn from PubChem BioAssay AID1159580.
